# Experimental System: MKNK1 (human) (UniProt Q9BUB5)
# Sequence (Q9BUB5 whole entry, looked up): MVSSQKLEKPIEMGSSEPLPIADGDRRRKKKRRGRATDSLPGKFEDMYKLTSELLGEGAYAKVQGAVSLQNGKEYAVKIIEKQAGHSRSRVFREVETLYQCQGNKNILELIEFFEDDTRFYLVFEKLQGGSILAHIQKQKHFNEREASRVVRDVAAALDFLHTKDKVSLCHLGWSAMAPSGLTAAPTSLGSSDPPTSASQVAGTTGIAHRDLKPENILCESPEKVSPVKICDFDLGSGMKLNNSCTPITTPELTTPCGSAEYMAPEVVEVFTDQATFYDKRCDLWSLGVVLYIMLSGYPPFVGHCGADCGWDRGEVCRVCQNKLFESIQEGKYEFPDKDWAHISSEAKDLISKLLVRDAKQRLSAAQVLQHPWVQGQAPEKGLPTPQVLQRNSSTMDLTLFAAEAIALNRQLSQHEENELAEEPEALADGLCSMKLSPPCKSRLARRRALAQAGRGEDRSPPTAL
# Method: radiometric filter-binding kinase assay
# Measurement Parameters: compound 1.0 µM
Experimental Endpoint: residual activity (%)

Below, each entry is followed by its recorded residual activity result.
COc1cc(C(=O)N2CCOCC2)c(F)cc1Nc1ncc(C(F)(F)F)c(NC2CC2)n1	74
O=C1NC(=S)N[C@@H]1Cc1c[nH]c2ccccc12	85
COc1ccc(N(C(=O)Nc2c(C)cccc2C)c2cc(Nc3ccc(N4CCN(C)CC4)cc3)ncn2)c(OC)c1	112
CCCC(CCC)C(=O)O	86

(1) NC(=O)c1ccc(-c2ccc(Oc3cncc4sc(-c5nn[nH]n5)cc34)cc2)cc1
(2) O=c1c(O)c(-c2ccc(O)c(O)c2)oc2cc(O)c(O)c(O)c12
IN: From the items above, decide which of 1 and 2 has the lower residual activity reading. Selection: enter the item's label.
OUT: 2
